Molecular target: KLK7 (Homo sapiens, UniProt P49862)
Sequence (P49862 30-253): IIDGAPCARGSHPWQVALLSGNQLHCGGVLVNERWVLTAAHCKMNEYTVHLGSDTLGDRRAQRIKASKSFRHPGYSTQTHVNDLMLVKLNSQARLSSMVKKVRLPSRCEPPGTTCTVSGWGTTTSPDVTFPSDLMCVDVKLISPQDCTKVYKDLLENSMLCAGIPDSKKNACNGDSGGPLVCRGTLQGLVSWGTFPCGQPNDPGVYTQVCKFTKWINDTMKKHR

molecule	IC50
CC(C)(C)OC(=O)NC(Cc1ccccc1)C(=O)NC(Cc1ccccc1)P(=O)(Oc1ccccc1)Oc1ccccc1 (stereo not shown)	1910 nM
